Provenance of the data: patent US20050060764A1

I'd be grateful if you could share measured % INHIB (inhibition of rat RANKL mRNA levels) for these entries.
test system: rat RANKL mRNA; assay: Antisense inhibition of rat RANKL mRNA levels in UMR-106 cells, quantitative real-time PCR (Table 3); format: cell-based; set-up: concentration or dose not given beside the values; details: averages from three experiments
Strand notation (5' to 3'): a small letter for the sugar, then the base; units joined by * are phosphorothioate-linked, units joined directly phosphodiester-linked; [ ] holds rarer units or linkages, { } end groups; capitals alone tell only the bases. e = 2'-O-(2-methoxyethyl) (MOE); [5mC] = 5-methylcytosine; d = 2'-deoxy (DNA)
Write the answer as a number in %, unit excluded.

Form: substance = 286632 (antisense e[5mC]*eT*eT*eG*eG*dG*dA*dT*dT*dT*dT*dG*dA*dT*dG*e[5mC]*eT*eG*eG*eT) [compound 286632] ; % INHIB (inhibition of rat RANKL mRNA levels) = 51

The measured % INHIB (inhibition of rat RANKL mRNA levels) associated with 286626 (antisense eT*eG*eT*eT*eG*dG*d[5mC]*dG*dT*dA*d[5mC]*dA*dG*dG*dT*eA*eA*eT*eA*eG) [compound 286626] reads 41

The value of % INHIB (inhibition of rat RANKL mRNA levels) measured for the substance 286640 (antisense eA*eA*eA*eG*e[5mC]*d[5mC]*d[5mC]*d[5mC]*dA*dA*dA*dG*dT*dA*d[5mC]*eG*eT*e[5mC]*eG*e[5mC]) [compound 286640] turned out to be 56

# % INHIB (inhibition of rat RANKL mRNA levels) (substance: 286624 (antisense e[5mC]*eA*eG*eG*eT*dA*dA*dT*dA*dG*dA*dA*dG*d[5mC]*d[5mC]*eA*eT*e[5mC]*eT*eT) [compound 286624] ) is 22

286645 (antisense e[5mC]*eT*eT*eA*eG*dT*dA*dG*dT*d[5mC]*dT*dT*dA*d[5mC]*dA*e[5mC]*eA*eT*eG*eT) [compound 286645] has a reported % INHIB (inhibition of rat RANKL mRNA levels) of 51

For reference, reported % INHIB (inhibition of rat RANKL mRNA levels) for 286612 (antisense eT*eG*eG*eT*eA*d[5mC]*d[5mC]*dA*dA*dG*dA*dG*dG*dA*d[5mC]*eA*eG*eA*e[5mC]*eT) [compound 286612] stands at 5

Input 286596 (antisense eT*e[5mC]*eT*eG*eT*dT*dA*dG*dG*dA*dT*d[5mC]*d[5mC]*dA*dT*e[5mC]*eT*eG*e[5mC]*eG) [compound 286596] . Output % INHIB (inhibition of rat RANKL mRNA levels): 58

% INHIB (inhibition of rat RANKL mRNA levels) for 286593 (antisense e[5mC]*eT*eG*e[5mC]*eG*d[5mC]*dT*d[5mC]*dG*dA*dA*dA*dG*dT*dA*e[5mC]*eA*eG*eG*eA) [compound 286593] is 49

Data point: 286637 (antisense e[5mC]*eG*e[5mC]*eA*eT*d[5mC]*dT*dT*dG*dA*dT*d[5mC]*d[5mC]*dG*dG*eA*eT*e[5mC]*e[5mC]*eA) [compound 286637] ; % INHIB (inhibition of rat RANKL mRNA levels) = 27

Recorded result, 286603 (antisense eA*eG*eT*e[5mC]*eG*dA*dG*dT*d[5mC]*d[5mC]*dT*dG*d[5mC]*dA*dA*eA*e[5mC]*e[5mC]*eT*eG) [compound 286603] , % INHIB (inhibition of rat RANKL mRNA levels): 59

The recorded % INHIB (inhibition of rat RANKL mRNA levels) for 286611 (antisense eA*eG*eA*eG*eG*dA*d[5mC]*dA*dG*dA*d[5mC]*dT*dG*dA*d[5mC]*eT*eT*eT*eA*eT) [compound 286611] is 47

For 286641 (antisense e[5mC]*eT*eT*eT*eG*dA*dA*dA*dG*d[5mC]*d[5mC]*d[5mC]*d[5mC]*dA*dA*eA*eG*eT*eA*e[5mC]) [compound 286641] the substance record lists % INHIB (inhibition of rat RANKL mRNA levels) as 49

According to the records, this substance 286623 (antisense eT*eA*eA*eT*eA*dG*dA*dA*dG*d[5mC]*d[5mC]*dA*dT*d[5mC]*dT*eT*eG*eG*eT*eT) [compound 286623] displays % INHIB (inhibition of rat RANKL mRNA levels) of 16
